Below, each entry is listed with its recorded inhibition.
experiment: StAR promoter reporter inhibitors, counter-screen for LRH-1 inverse agonist project, cell-based, luminescence, high throughput (AID 651611); details: StAR promoter luciferase reporter counterscreen, at 3.6 µM, stronger effect = higher value
reported.endpoint: inhibition (%)

>>> print(df.to_string())
                                   compound  reported_endpoint  observed_measurement
0  O=C(Nc1ccc(CSc2ccccc2)cc1)c1ccc(CN2CCOCC2)cc1         inhibition                  28.7
1           COc1ccccc1NC(=S)NN=C(C)c1ccccn1         inhibition                  81.8
2  COC(=O)c1ccc2nc(Nc3nc4c(F)cc(F)cc4s3)sc2c1         inhibition                  28.2
3   Oc1cccc(Nc2nc(-c3ccccc3Cl)nc3ccccc23)c1         inhibition                  9.52
4            CC(C)(C)c1ccc(Oc2ccc(N)cc2)cc1         inhibition                  71.2
5  CCC1CCCCN1C(=O)c1ccc([N+](=O)[O-])o1 (stereo unspecified)         inhibition                  0.98

====

tested on: transactivating tegument protein VP16 (Human herpesvirus 1); experiment: VP16 transactivation reporter inhibitors, counter-screen for SRC2 inhibitor project, cell-based, luminescence, single concentration (AID 652007); conditions: cell-based VP16 transactivation luciferase reporter, at 8.9 µM
Activity calls are given as the source filed them. Cut-off read from the data, not from the text of the source: active = inhibition above about 36%; inactive = the rest.
Outcome codes: T = active, F = inactive

>>> print(df.to_string())
                                    compound  label_value
 0  Cc1nn(-c2ccccc2)c(C)c1NC(=O)COc1ccc(Cl)cc1Cl            F
 1  N#Cc1c([N+](=O)[O-])cc([N+](=O)[O-])cc1S(=O)(=O)Cc1ccccc1            T
 2        O=S(=O)(Cc1ccccc1Cl)NCCc1ccc(F)cc1            F
 3  O=C(N/N=C/c1ccc([N+](=O)[O-])s1)c1ccccc1            F
 4  COc1cc(OC)c2c(-c3cccc(-c4ccc(N(C)C)cc4)c3)cc(=O)oc2c1            F
 5  COc1cccc(/C=C2/SC(=S)N(CCCC(=O)Nc3ccc(O)cc3)C2=O)c1            T
 6  COc1ccc(C[C@H](N)C(=O)N[C@H]2[C@@H](O)[C@H](n3cnc4c(N(C)C)ncnc43)O[C@@H]2CO)cc1            T
 7  CC(C)(C)OC(=O)NCCCCCNC(=O)c1nc[nH]c1C(=O)NCCCCCNC(=O)OC(C)(C)C            F
 8        CN=c1scc(-c2cccs2)n1/N=C/c1ccccc1O            T
 9       CCCN1C=CC(=C2C(=O)c3ccccc3C2=O)C=C1            T
10  COc1ccc(COC(=O)C2=C(C)NC(=O)NC2c2ccc(OC)cc2)cc1 (stereo unspecified)            F
11            CCOn1c(=O)c[n+]([O-])c2ccccc21            F
12  O=C(NCc1cccnc1)c1cc(Sc2ccc(F)cc2F)nc2ccccc12            F
13  O=C1C=CC2C3C(=O)N(c4ccccc4)C(=O)C3C1N2Cc1ccccc1 (stereo unspecified)            F
14  O=C(CCc1nnc(C2CCCCC2)o1)N1CCC(Oc2cccnc2)CC1            F
15  CCOc1ccc(-c2nc(CSCC(=O)NC3CCN(Cc4ccccc4)CC3)c(C)o2)cc1            F
16  O=C1N(Cc2cccc(Cl)c2)C[C@@H]2C[C@@H](c3cccc4cccnc34)N3CCC[C@@]123            F
17  CCOC(=O)c1ccc(-c2ccc(N3C(c4ccsc4)=Cc4ccc(F)cc4C3c3c[nH]c4ccc(C#N)cc34)cc2)cc1F (stereo unspecified)            F
18  O=[N+]([O-])c1ccc2ncnc(Nc3ccc4c(c3)OCCO4)c2c1            F
19  Cc1sc(NC(=O)CCCC(=O)O)c(C(N)=O)c1-c1ccccc1            T
20  O=C(CCCN1C(=O)/C(=C/c2cccs2)SC1=S)Nc1ccccn1            F
